Data provenance is patent US20220242906A1.

# Test system: T1, elongation initiation factor 4E (eIF4E) (UniProt P06730 2-217, limits assumed)
# T1 construct: mature; In SPR it was amine-coupled to a CM5 chip with m7GTP present; also called full-length eIF4E; GS-eIF4E (biotinylated form used only for phage panning)
# T1 sequence (P06730 2-217 limits assumed): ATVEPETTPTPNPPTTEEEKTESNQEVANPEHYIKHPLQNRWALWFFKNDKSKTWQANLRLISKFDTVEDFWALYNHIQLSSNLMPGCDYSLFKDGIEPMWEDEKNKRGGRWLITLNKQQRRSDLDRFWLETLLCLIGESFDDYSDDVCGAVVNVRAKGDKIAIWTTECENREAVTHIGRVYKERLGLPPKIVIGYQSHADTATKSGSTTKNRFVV
# Test description: SPR (Biacore T100), eIF4E immobilised on CM5 chip, peptide as analyte
Test readout: Kd (nM)
Report the value in nM with no unit label.

ACEMGFYQDCG (HELM PEPTIDE1{A.C.E.M.G.F.Y.Q.D.C.G.[am]}$PEPTIDE1,PEPTIDE1,2:R3-10:R3$$$V2.0; SMILES CSCC[C@@H]1NC(=O)[C@H](CCC(=O)O)NC(=O)[C@@H](NC(=O)[C@H](C)N)CSSC[C@@H](C(=O)NCC(N)=O)NC(=O)[C@H](CC(=O)O)NC(=O)[C@H](CCC(N)=O)NC(=O)[C@H](Cc2ccc(O)cc2)NC(=O)[C@H](Cc2ccccc2)NC(=O)CNC1=O, EE-02 with F7Y) [EE-35 (ACEMGFYQDCG)]
137

Now take the following binder into account.
Q. Entry ACEIGFFQDCG (HELM PEPTIDE1{A.C.E.I.G.F.F.Q.D.C.G.[am]}$PEPTIDE1,PEPTIDE1,2:R3-10:R3$$$V2.0; SMILES CC[C@H](C)[C@@H]1NC(=O)[C@H](CCC(=O)O)NC(=O)[C@@H](NC(=O)[C@H](C)N)CSSC[C@@H](C(=O)NCC(N)=O)NC(=O)[C@H](CC(=O)O)NC(=O)[C@H](CCC(N)=O)NC(=O)[C@H](Cc2ccccc2)NC(=O)[C@H](Cc2ccccc2)NC(=O)CNC1=O, EE-02 with M4I) [EE-20] has what Kd?
A. 1600
